The reported measurements were obtained from patent US20190106460A1.

Target: β-TrCP1/Skp1 (Homo sapiens, UniProt Q9Y297)
Sequence (Q9Y297 whole entry): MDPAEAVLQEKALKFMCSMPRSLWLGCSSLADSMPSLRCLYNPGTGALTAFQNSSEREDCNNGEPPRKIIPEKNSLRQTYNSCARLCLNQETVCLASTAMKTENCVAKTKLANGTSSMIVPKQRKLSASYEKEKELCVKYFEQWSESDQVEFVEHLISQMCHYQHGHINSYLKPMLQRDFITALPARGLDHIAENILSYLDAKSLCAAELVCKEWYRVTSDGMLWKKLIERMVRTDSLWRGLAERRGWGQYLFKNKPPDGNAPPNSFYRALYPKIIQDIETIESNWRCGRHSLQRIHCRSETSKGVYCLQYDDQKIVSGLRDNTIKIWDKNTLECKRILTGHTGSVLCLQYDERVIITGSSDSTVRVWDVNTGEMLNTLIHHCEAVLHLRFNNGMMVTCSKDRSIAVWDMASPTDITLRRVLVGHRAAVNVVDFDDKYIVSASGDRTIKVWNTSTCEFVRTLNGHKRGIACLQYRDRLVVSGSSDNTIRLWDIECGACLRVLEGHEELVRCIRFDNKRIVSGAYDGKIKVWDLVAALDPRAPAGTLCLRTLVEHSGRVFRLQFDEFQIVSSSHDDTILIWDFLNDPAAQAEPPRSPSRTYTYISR
Sequence (P63208 2-163 partner limits assumed): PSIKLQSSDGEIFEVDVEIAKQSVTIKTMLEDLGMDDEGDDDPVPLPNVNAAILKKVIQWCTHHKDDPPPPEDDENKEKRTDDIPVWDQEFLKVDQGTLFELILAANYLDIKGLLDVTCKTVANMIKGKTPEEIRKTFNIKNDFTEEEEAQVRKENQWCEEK
Assay: βTrCP ubiquitination assay (Ub assay)
Format: biochemical
Conditions: 10 μM compound
Starred links: 1 amine or outer side, 2 acyl side, 3 side chain; linkers in the order of their positions; H or OH if unused. Non-standard residues stand in square brackets, D forms with d. Residues, ends and D or L forms follow the SMILES beside them. *: point of attachment. Phe(4-NO2) = N[C@@H](Cc1ccc([N+](=O)[O-])cc1)C(=O)O; Phe(3-F) = N[C@@H](Cc1cccc(F)c1)C(=O)O; Phe(4-F) = N[C@@H](Cc1ccc(F)cc1)C(=O)O; 1Nal = N[C@@H](Cc1cccc2ccccc12)C(=O)O; Phe(2-F) = N[C@@H](Cc1ccccc1F)C(=O)O; Maleoyl = O=C(/C=C\C(=O)[*:2])[*:1]; X1 = CCCCOc1ccc(S(=O)(=O)*)cc1; Suc = O=C(CCC(=O)[*:2])[*:1]; Ethoxycarbonyl = CCOC(=O)*
Measurement Kind: Ub Assay 10 μM

Some solved cases for reference:
Molecule	Ub Assay 10 μM
NC(=O)[C@H](CCC(=O)O)NC(=O)[C@H](Cc1c[nH]c2ccccc12)NC(=O)[C@H](Cc1cccc(F)c1)NC(=O)CNC(=O)[C@H](CCC(=O)O)NC(=O)CCC(=O)O [UBP014, Suc-EGF(3F)WE-NH2] (Suc-EG[Phe(3-F)]WE-NH2)	reduces/
NC(=O)[C@H](CCC(=O)O)NC(=O)[C@H](Cc1c[nH]cn1)NC(=O)[C@H](Cc1cccc(F)c1)NC(=O)CNC(=O)[C@H](CCC(=O)O)NC(=O)CCC(=O)O [UBP015, Suc-EGF(3F)HE-NH2] (Suc-EG[Phe(3-F)]HE-NH2)	reduces/
CCOC(=O)N[C@H](CC(=O)O)C(=O)N[C@@H](CCC(=O)O)C(=O)NCC(=O)N[C@@H](Cc1cccc(F)c1)C(=O)N[C@@H](Cc1c[nH]c2ccccc12)C(=O)N[C@@H](CCC(=O)O)C(N)=O [UBP023, EtO(CO)-dEGF(3F)WE-NH2] (Ethoxycarbonyl-[dD]EG[Phe(3-F)]WE-NH2)	inhibits/
NC(=O)[C@H](CCC(=O)O)NC(=O)[C@H](Cc1ccc([N+](=O)[O-])cc1)NC(=O)[C@H](Cc1ccccc1F)NC(=O)CNC(=O)[C@H](CCC(=O)O)NC(=O)CCC(=O)O [UBP003, Suc-EGF(2F)F(4NO2)E-NH2] (Suc-EG[Phe(2-F)][Phe(4-NO2)]E-NH2)	no effect/
NC(=O)[C@H](CCC(=O)O)NC(=O)[C@H](Cc1cccc2ccccc12)NC(=O)[C@H](Cc1ccc([N+](=O)[O-])cc1)NC(=O)CNC(=O)[C@H](CCC(=O)O)NC(=O)CCC(=O)O [UBP011, Suc-EGF(4NO2)1NalE-NH2] (Suc-EG[Phe(4-NO2)][1Nal]E-NH2)	reduces/
NC(=O)[C@H](CCC(=O)O)NC(=O)[C@H](Cc1ccccc1)NC(=O)[C@H](Cc1ccccc1)NC(=O)CNC(=O)[C@H](CCC(=O)O)NC(=O)CCC(=O)O [UBP002, Suc-EGFFE-NH2] (Suc-EGFFE-NH2)	reduces/

Enquiry: State its Ub Assay 10 μM: NC(=O)[C@H](CCC(=O)O)NC(=O)[C@H](Cc1cccc2ccccc12)NC(=O)[C@H](Cc1ccc(O)cc1)NC(=O)CNC(=O)[C@H](CCC(=O)O)NC(=O)CCC(=O)O [UBP009, Suc-EGY1NalE-NH2] (Suc-EGY[1Nal]E-NH2)
Return: reduces/

Enquiry: State its Ub Assay 10 μM: CCCCOc1ccc(S(=O)(=O)N[C@H](CC(=O)O)C(=O)N[C@@H](CCC(=O)O)C(=O)NCC(=O)N[C@@H](Cc2cccc(F)c2)C(=O)N[C@@H](Cc2c[nH]c3ccccc23)C(=O)N[C@@H](CCC(=O)O)C(N)=O)cc1 [UBP030, 4-(BuO)-PhSO2-dEGF(3F)WE-NH2] (X1-[dD]EG[Phe(3-F)]WE-NH2)
Return: reduces/

Enquiry: State its Ub Assay 10 μM: NC(=O)[C@H](CCC(=O)O)NC(=O)[C@H](Cc1ccc([N+](=O)[O-])cc1)NC(=O)[C@H](Cc1cccc(F)c1)NC(=O)CNC(=O)[C@H](CCC(=O)O)NC(=O)/C=C\C(=O)O [UBP008, Mal-EGF(3F)F(4NO2)E-NH2] (Maleoyl-EG[Phe(3-F)][Phe(4-NO2)]E-NH2)
Return: no effect/

Enquiry: State its Ub Assay 10 μM: NC(=O)[C@H](CCC(=O)O)NC(=O)[C@H](Cc1ccc([N+](=O)[O-])cc1)NC(=O)[C@H](Cc1cccc(F)c1)NC(=O)CNC(=O)[C@H](CCC(=O)O)NC(=O)CCC(=O)O [UBP004, Suc-EGF(3F)F(4NO2)E-NH2] (Suc-EG[Phe(3-F)][Phe(4-NO2)]E-NH2)
Return: inhibits/

Enquiry: State its Ub Assay 10 μM: NC(=O)[C@H](CCC(=O)O)NC(=O)[C@H](Cc1ccccc1)NC(=O)[C@H](Cc1ccc(O)cc1)NC(=O)CNC(=O)[C@H](CCC(=O)O)NC(=O)CCC(=O)O [UBP007, Suc-EGYFE-NH2] (Suc-EGYFE-NH2)
Return: reduces/

Enquiry: State its Ub Assay 10 μM: NC(=O)[C@H](CCC(=O)O)NC(=O)[C@H](Cc1ccc([N+](=O)[O-])cc1)NC(=O)[C@H](Cc1ccc(F)cc1)NC(=O)CNC(=O)[C@H](CCC(=O)O)NC(=O)CCC(=O)O [UBP005, Suc-EGF(4F)F(4NO2)E-NH2] (Suc-EG[Phe(4-F)][Phe(4-NO2)]E-NH2)
Return: reduces/
